- System: P. berghei ookinete development
- Conditions: read-out: Pb ODA (this manuscript) IC50; P. berghei ookinete development assay; this manuscript
Measured Quantity: log10(IC50) (log10 of the value in µM)
// stored as log10 of IC50 expressed in µM

Report log10(IC50) for CNC(=O)c1ccccc1Nc1nc(Nc2ccc(CCN3CCN(C)CC3)cc2)ncc1Cl.Cl
0.36

Report log10(IC50) for Br.CC(CCON1C(N)=NC(N)=NC1(C)C)c1ccc(Cl)cc1 (centres unmarked)
0.98

Report log10(IC50) for Cc1c(Cc2ccccc2Br)cnc2nc(N)nc(N)c12.Cl
0.93

Report log10(IC50) for Cc1[nH]c(C)c(-c2ccc(C(=O)c3ccc(Cl)cc3)cc2)c(=O)c1Cl
-0.77

Report log10(IC50) for Nc1nc(N)c2c(ccc3c2cnn3Cc2cccnc2)n1
0.38
